Molecular target: Cdk5/p25 (Homo sapiens)
Assay: Cyclin-Dependent Kinase 5 High Throughput Screening (cdk5-HTS) Assay
Format: biochemical
Details: high throughput screen
Give pIC50 for every item shown.
// returns pIC50 (minus log10 of molar concentration), number only

Query: State its pIC50 for this molecule: CCC(C)n1c(=O)ccc2cnc(Nc3ccc(C)c(C)c3)nc21 (stereo not drawn) [Example 476]
Result: 7.51

Query: Given the molecule CCC(C)n1c(=O)ccc2cnc(Nc3ccc(F)c(C(F)(F)F)c3)nc21 (stereo not drawn) [Example 458] , write its reported pIC50.
Result: 7.54

Query: Using known records, supply pIC50 for CCCn1c(=O)ccc2cnc(Nc3ccc(C)c(Cl)c3)nc21 [Example 347]
Result: 7.46

Query: Read the entry O=c1ccc2cnc(Nc3ccc(Cl)c(C(F)(F)F)c3)nc2n1C1CCCC1 [Example 546] and write its reported pIC50.
Result: 7.19

Query: Name the recorded pIC50 of the item CCCn1c(=O)ccc2cnc(Nc3cc(C)cc(C)c3)nc21 [Example 346] in your answer.
Result: 7.54

Query: Tell me measured pIC50 for CCCCn1c(=O)ccc2cnc(Nc3cc(OC)cc(C(F)(F)F)c3)nc21 [Example 396] please.
Result: 6.23

Query: Identify pIC50 associated with the molecule CCC(C)n1c(=O)ccc2cnc(Nc3cc([N+](=O)[O-])ccc3F)nc21 (stereo not drawn) [Example 459]
Result: 6.71

Query: Note down pIC50 recorded for O=c1[nH]c2cc(Nc3ncc4ccc(=O)n(C5CCCC5)c4n3)ccc2o1 [Example 554]
Result: 7.49

Query: Determine from records and report pIC50 for CCC(CC)n1c(=O)ccc2cnc(Nc3cccc([N+](=O)[O-])c3)nc21 [Example 498]
Result: 7.17

Query: For COc1ccc(Nc2ncc3ccc(=O)n(C4CCCCC4)c3n2)cc1OC [Example 613] , write its pIC50.
Result: 7.20

Query: Return the recorded pIC50 value; entry: Cc1cc(Nc2ncc3ccc(=O)n(C4CCCC4)c3n2)cc(C)c1O [Example 559]
Result: 7.03

Query: For the molecule CCC(CC)n1c(=O)ccc2cnc(Nc3ccc(C)c(NS(C)(=O)=O)c3)nc21 [Example 519] , give its measured pIC50 value.
Result: 7.48

Query: Give me measured pIC50, please, for this molecule: CCCn1c(=O)ccc2cnc(Nc3ccc(F)c(C)c3)nc21 [Example 337]
Result: 6.82

Query: Indicate the recorded pIC50 value for this molecule: CC(C)(C)OC(=O)Nc1ccc(Nc2ncc3ccc(=O)n(C4CCCC4)c3n2)cc1 [Example 535]
Result: 7.13

Query: Consider the molecule Nc1c(Cl)cc(Nc2ncc3ccc(=O)n(C4CCCC4)c3n2)cc1Cl [Example 557] and give its recorded pIC50.
Result: 7.02

Query: Return pIC50 (reported value) for this molecule: CCC(CC)n1c(=O)ccc2cnc(Nc3ccc4oc(=O)[nH]c4c3)nc21 [Example 517]
Result: 7.74

Query: Write down pIC50 measured for item CC(C)n1c(=O)ccc2cnc(Nc3ccc4[nH]nnc4c3)nc21 [Example 410]
Result: 7.35

Query: Let me know recorded pIC50 for CCCn1c(=O)ccc2cnc(Nc3ccc(C#N)c(NC(C)=O)c3)nc21 [Example 340] , thanks.
Result: 6.77

Data origin, for the record: patent US20040224958A1
